Source listed as paper PMC3578785.

Entries annotated with measured half-life
# ASSAY_TEXT: in vitro
# Assay type: in vitro ADME, mouse
# STATED_CONDITIONS: pH 7.4; mouse microsomes; read-out: t1/2 in mouse microsomes
Number in min, nothing else.

# example entries with known answers
>  <QUERY_SMILES>
CCc1ccc(-c2cc(CN3CCOCC3)c(C)n2-c2ccc(F)cc2)cc1

>  <UOM>
min

>  <half-life>
12.5

$$$$
>  <QUERY_SMILES>
CSc1ccc(-c2cc(CN3CCOCC3)c(C)n2-c2ccc(F)cc2)cc1

>  <UOM>
min

>  <half-life>
9.27

$$$$

Next molecule, half-life to be filled in.
query: Which half-life reading was recorded for the molecule CSc1ccc(-c2cc(CN3CCSCC3)c(C)n2-c2ccc(F)cc2)cc1 ?
result: 10

* * *

# ASSAY_TEXT: Oral pharmacokinetic studies in mice, peripheral total blood
# STATED_CONDITIONS: female, C57BL/6, mouse, whole blood, 0.98 mg/kg
ENDPOINT_NAME: AUC(0-inf) (µM·h)
Numeric only. Scale: µM·h

query: Entry NNC(=O)c1ccncc1 [Isoniazid] has what AUC(0-inf)?
result: 5.5

* * *

# ASSAY_TEXT: in vitro
# Type: in vitro ADME, mouse
# STATED_CONDITIONS: mouse, 0.5 µM, pH 7.4
Response field label: string, one of Fulfilled (Cli mouse strictly below 6 mL/min/g) or Not fulfilled.

>  <COMPOUND>
COc1ccc(-c2cc(CN3CCOCC3)c(C)n2-c2ccc(F)cc2)cc1 [Compound 6]

>  <CLASSIFICATION>
Fulfilled

$$$$

query: In plain terms, does Cc1ccc(-c2cc(CN3CCOCC3)c(C)n2-c2ccc(Cl)cc2)cc1 [Compound 10] come in under 6 mL/min/g for Cli mouse?
result: Fulfilled

query: Please state whether Cli mouse is below 6 mL/min/g for CCc1ccc(-c2cc(CN3CCOCC3)c(C)n2-c2ccc(OC)cc2)cc1 [Compound 19]
result: Not fulfilled

query: Does this compound meet the criterion Cli mouse < 6 mL/min/g? CSc1ccc(-c2cc(CN3CCSCC3)c(C)n2-c2ccc(F)cc2)cc1 [Compound 4]
result: Not fulfilled

query: Confirm or reject: Cli mouse of CCCc1ccc(-c2cc(CN3CCOCC3)c(C)n2-c2ccc(OC)cc2)cc1 [Compound 20] lies strictly below 6 mL/min/g
result: Fulfilled

query: I'd appreciate it if you could check whether CSc1ccc(-c2cc(CN3CCOCC3)c(C)n2-c2ccc(F)cc2)cc1 [Compound 7] has Cli mouse smaller than 6 mL/min/g.
result: Not fulfilled

query: I'd appreciate it if you could check whether Cc1c(CN2CCOCC2)cc(-c2ccc(Cl)cc2)n1-c1ccc(C(C)C)cc1 [Compound 17] has Cli mouse smaller than 6 mL/min/g.
result: Fulfilled

query: Could you please tell me whether Cli mouse recorded for CCc1ccc(-c2cc(CN3CCOCC3)c(C)n2-c2ccc(F)cc2)cc1 [Compound 8] is less than 6 mL/min/g?
result: Fulfilled

query: Threshold test, Cli mouse < 6 mL/min/g: CCc1ccc(-c2cc(CN3CCOCC3)c(C)n2-c2ccc(Cl)cc2)cc1 [Compound 11]
result: Fulfilled

query: I wonder whether Cc1c(CN2CCN(C)CC2)cc(-c2ccc(Cl)cc2)n1-c1ccc(Cl)cc1 [Compound 1] has Cli mouse below 6 mL/min/g. Can you tell?
result: Fulfilled

query: I wonder whether Cc1ccc(-c2cc(CN3CCSCC3)c(C)n2-c2ccc(F)cc2)cc1 [Compound 2] has Cli mouse below 6 mL/min/g. Can you tell?
result: Not fulfilled

query: Does the reported Cli mouse of CCc1ccc(-n2c(-c3ccc(OC)cc3)cc(CN3CCOCC3)c2C)cc1 [Compound 23] stay below 6 mL/min/g?
result: Not fulfilled
